Target Entity: human ether-à-go-go-related gene (hERG) potassium channel (human);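 further: peak tail current of the secondary pulse compared with the same well before compound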
Sequence (Q12809 whole entry, looked up): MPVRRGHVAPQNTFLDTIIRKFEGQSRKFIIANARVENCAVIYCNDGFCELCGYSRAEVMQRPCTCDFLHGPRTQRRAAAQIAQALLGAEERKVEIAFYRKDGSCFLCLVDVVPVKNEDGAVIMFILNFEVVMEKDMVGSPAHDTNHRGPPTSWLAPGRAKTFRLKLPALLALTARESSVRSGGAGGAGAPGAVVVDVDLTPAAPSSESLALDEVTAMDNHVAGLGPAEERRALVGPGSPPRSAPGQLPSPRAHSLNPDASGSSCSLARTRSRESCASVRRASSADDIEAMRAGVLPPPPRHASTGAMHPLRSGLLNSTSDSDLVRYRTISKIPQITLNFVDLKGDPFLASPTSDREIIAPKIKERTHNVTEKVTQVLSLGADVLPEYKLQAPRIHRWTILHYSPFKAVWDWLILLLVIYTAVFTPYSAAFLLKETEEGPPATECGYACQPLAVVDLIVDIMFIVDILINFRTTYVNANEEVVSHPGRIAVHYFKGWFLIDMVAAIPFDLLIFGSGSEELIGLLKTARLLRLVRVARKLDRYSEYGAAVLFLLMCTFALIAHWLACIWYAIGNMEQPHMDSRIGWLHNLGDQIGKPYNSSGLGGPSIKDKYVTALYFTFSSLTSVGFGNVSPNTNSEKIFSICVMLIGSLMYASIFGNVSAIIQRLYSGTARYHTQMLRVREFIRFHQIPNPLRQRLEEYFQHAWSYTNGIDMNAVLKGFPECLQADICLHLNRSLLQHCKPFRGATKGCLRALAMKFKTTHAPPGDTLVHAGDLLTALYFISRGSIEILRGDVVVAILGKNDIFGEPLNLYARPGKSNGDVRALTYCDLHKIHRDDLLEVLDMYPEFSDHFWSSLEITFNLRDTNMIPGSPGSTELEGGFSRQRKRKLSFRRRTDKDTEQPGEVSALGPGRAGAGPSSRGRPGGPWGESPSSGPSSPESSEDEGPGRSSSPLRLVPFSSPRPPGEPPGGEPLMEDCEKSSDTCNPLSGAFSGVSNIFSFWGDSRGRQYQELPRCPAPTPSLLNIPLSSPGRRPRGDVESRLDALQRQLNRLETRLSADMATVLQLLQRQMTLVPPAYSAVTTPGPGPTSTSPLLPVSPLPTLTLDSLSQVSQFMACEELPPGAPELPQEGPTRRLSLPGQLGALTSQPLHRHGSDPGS
Measurement Description: primary screen, population patch clamp on CHO cells stably expressing hERG; higher = less effect of the substance
Procedure: Briefly, Chinese hamster ovary (CHO) cells stably expressing the hERG channel were dislodged from tissue culture flasks and dispensed into PPC plates. […] During the recording, background leak currents were estimated by a 100 ms step to -80 mV from an initial holding potential of -70 mV and subtracted from the subsequent current measurement. The campaign was conducted in two phases using slight differences in recording protocol. […]
The campaign covered roughly 310,000 compounds. About 14,000 (4.5%) showed an effect of 50% or more. Effects have a minus sign here. This is one part of a sample in which strong results are shown more often than they occur.
Measured Endpoint: hERG current change (%, negative = inhibition) at 10uM (%)

| Compound | Value Unit | Recorded Measurement |
| --- | --- | --- |
| CCCN1CCC(=O)N([C@H](CSc2ccccc2)Cc2ccccc2)CC1 | % | -69.6 |
| CC(=C1C(=O)c2ccccc2C1=O)N1CCN(Cc2ccccc2)CC1 | % | -26.6 |
| O=C(COc1ccc(Cl)cc1)N1CCCCCCC1 | % | -12.2 |
| Cc1ccc(S(=O)(=O)N2CCC(c3nnc(SCCN4CCCC4)n3C)CC2)cc1 | % | 17.7 |
| O=C(Nc1ccc(-c2csc(-c3ccccc3)n2)cc1)c1ccccc1 | % | 16.9 |
| C=CCOc1cccc(C2C(C(=O)c3ccc(C)o3)=C(O)C(=O)N2CCCn2ccnc2)c1 (stereo not shown) | % | 9.13 |
| CCn1c(SCc2ccccc2)nnc1C1CCCCC1 | % | -11.2 |
| Cc1oc(-c2ccc(Cl)cc2)nc1CS(=O)CC(=O)NCCCN1CCN(Cc2ccccc2)CC1 (stereo not shown) | % | -62.1 |
| O=C(CNC(=O)c1cccs1)NCC(=O)OCc1ccccc1Cl | % | 2.85 |
| CC(C)(C)[C@H]1CCC(=O)N([C@H](CSc2ccccc2)Cc2ccccc2)CC1 | % | -3.06 |
| CCOC(=O)c1c(NC(=O)CSc2nc3c(c(=O)n(C)c(=O)n3C)n2C(C)C)sc(C)c1C | % | -0.527 |
| COc1ccc([C@H]2CC(=O)C=C(c3cccc(OCc4ccccc4)c3)C2)cc1 | % | 10.8 |
| COc1ccc(NS(=O)(=O)c2ccc(N3CCOCC3)c(NC(=O)c3ccccc3Br)c2)cc1 | % | -11.2 |

---

Recorded hERG current change (%, negative = inhibition) at 10uM by entry
Target Entity: human ether-à-go-go-related gene (hERG) potassium channel (human);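 further: peak tail current of the secondary pulse compared with the same well before compound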
Measurement Description: primary screen, population patch clamp on CHO cells stably expressing hERG; higher = less effect of the substance
In all, about 310,000 compounds went through this assay and about 14,000 (4.5%) showed an effect of 50% or more. The effect is printed as a negative number. The sample as a whole holds a higher share of strong results than the screen did.
Measured Endpoint: hERG current change (%, negative = inhibition) at 10uM (%)

| Compound | Recorded Measurement |
| --- | --- |
| CCN(C(=O)COC(=O)c1ccc(OC)c(S(=O)(=O)N(C)Cc2ccccc2)c1)C1CCS(=O)(=O)C1 (stereo not drawn) | -30.9 |
| CC(=O)c1ccc(N2C(=O)C3C4C=CC(CC4)C3C2=O)cc1 (stereo not drawn) | 13.6 |
| COCCNC(=O)C(c1ccc(O)cc1)N(Cc1ccco1)C(=O)CCC(=O)Nc1ccccn1 (stereo not drawn) | 23.8 |
